- System: 843782-103-R-J1-PDC complex spheroid viability;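 also: viability read after seven days of compound exposure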
- assay: Anticancer human tumor 843782-103-R-J1-PDC patient-derived lung adenocarcinoma cell line growth inhibition [RAS]
- condition notes: second compound 0.316 µM; first compound 0.000949 µM; hits give low values
measured property: viability, T/C (%)

INSERT INTO results (molecule, measured_property, u, number) VALUES
  ('CC1(C)CCC(Nc2ncc(C(F)(F)F)c(-c3c[nH]c4c(P(C)(C)=O)c(C#N)ccc34)n2)CN1 (centres undefined) + C=CC(=O)N1CCN(c2nc(OCC3CCCN3C)nc3c(F)c(-c4nc(N)cc(C)c4C(F)(F)F)c(Cl)cc23)C(C)C1', 'viability, T/C', '%', 87.3),
  ('CCc1c2c(nc3ccc(O)cc13)-c1cc3c(c(=O)n1C2)COC(=O)[C@]3(O)CC + C#Cc1c(F)ccc2cc(O)cc(-c3ncc4c(N5CC6CCC(C5)N6)nc(OCC56CCCN5CC(F)C6)nc4c3F)c12', 'viability, T/C', '%', 96.8),
  ('CCc1c2c(nc3ccc(O)cc13)-c1cc3c(c(=O)n1C2)COC(=O)[C@]3(O)CC + C=CC(=O)N1CCN(c2nc(OCC3CCCN3C)nc3c(F)c(-c4nc(N)cc(C)c4C(F)(F)F)c(Cl)cc23)C(C)C1', 'viability, T/C', '%', 70.7),
  ('CC1(C)CCC(Nc2ncc(C(F)(F)F)c(-c3c[nH]c4c(P(C)(C)=O)c(C#N)ccc34)n2)CN1 (centres undefined) + C#Cc1c(F)ccc2cc(O)cc(-c3ncc4c(N5CC6CCC(C5)N6)nc(OCC56CCCN5CC(F)C6)nc4c3F)c12', 'viability, T/C', '%', 101);
